# Species: Rattus norvegicus
# measurement notes: DrugMatrix - Regimen: Daily Repeat
# Assay type: toxicity, organism-based, Sprague-Dawley
# Design: regimen Daily Repeat, gender Male, age 6-8 weeks
# measurement setup: in vivo, po, 0 mg/kg, 72 h, tissue Plasma, route oral GAVAGE, dose level Control, time 3 day, […]
Kind request: treat 70 u/L as inclusive, so ALANINE AMINOTRANSFERASE at 70 u/L or higher is satisfied, anything lower is not satisfied.

These recorded examples may help you get a feel for the data.
CC(C)(Oc1ccc(CCNC(=O)c2ccc(Cl)cc2)cc1)C(=O)O [BEZAFIBRATE]    not satisfied
CN(C)CCCC1(c2ccc(F)cc2)OCc2cc(C#N)ccc21 (stereo not drawn) [CITALOPRAM]    satisfied
Cn1cnc([N+](=O)[O-])c1Sc1ncnc2nc[nH]c12 [AZATHIOPRINE]    satisfied

// next entry
input: Given COC1=CC(=O)C[C@@H](C)[C@]12Oc1c(Cl)c(OC)cc(OC)c1C2=O [GRISEOFULVIN] , state whether its ALANINE AMINOTRANSFERASE is at least 70 u/L.
output: not satisfied
